System: c-Src;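 also: 11-residue human phosphosite peptides and single-mutation variants displayed on the E. coli surface, counted by deep sequencing, each peptide's frequency after selection divided by its frequency in the unselected input library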;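 also: frequency after pTyr selection over input frequency; kinase dosed for 20-30% of maximal phosphorylation in three min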
Test: phosphorylation enrichment, bacterial display (enrichment ratio); higher = better substrate or ligand; peptides without Tyr show the background
// label = y if phosphorylation enrichment is not less than 0.5, otherwise n

| sequence_chain | class_assignment |
| --- | --- |
| DTDSSYCIPIA [GAB1_Y373_T377I] | n |
| FADPFYDFEIE [ZC3H18_Y372_YF] | y |
| SGSIHYSRVPR [GLB1_Y57] | y |
| LERYIYNRQEF [HLA-DPB1_Y59_E62Q] | y |
| RPDSPYSRLHD [DOK2_Y271_P274L] | y |
| GQECEYPPTQD [METAP2_Y137] | y |
| GGGGGYNCSSG [FUS_Y232_R234C] | n |
| HLDRSYSYSYS [PEAR1_Y890_R885H] | n |
| KVNKIYFPDFI [LIG3_Y767_YF] | n |
| WIPIQCPIISE [NOG_Y222_Y222C] | n |
| ITRDEYPSNPM [CEMIP2_Y1015] | n |
| KNNDGNIDFAE [MCFD2_Y135_Y135N_YF] | n |
| LHNLFYQLEAE [PKP2_Y616_S615F] | y |
